test system: PBMC; experiment: Inhibition of LPS-stimulated TNFalpha secretion in human PBMC cells at 10 uM after 24 hrs by ELISA; format: functional
Returns one of 1 (yes) or 0 (no); 1 (yes) when inhibition at 10 µM is >= 30%.

1. CSc1c(-c2ccccc2)c2cc([N+](=O)[O-])ccc2[nH]c1=O; 1 (yes)
2. COc1c(-c2ccccc2)c2ccccc2[nH]c1=O; 0 (no)
3. CCc1c(-c2ccccc2)c2ccccc2[nH]c1=O; 1 (yes)
4. CSc1c(-c2ccccc2)c2ccccc2[nH]c1=O; 1 (yes)
5. CNc1c(-c2ccccc2)c2ccccc2[nH]c1=O; 1 (yes)

From here, focus on the item given below.
# check: inhibition at 10 µM of Nc1c(-c2ccccc2)c2ccccc2[nH]c1=O is greater than or equal to 30%
0 (no)
